target: RSK3 (Mus musculus); construct: from tissue; host or cells: mouse brain; test: Kinobeads elution with test compound, mouse brain lysate, MS; format: binding; conditions: kinase released from kinobeads by specific elution
Sequence (P18653 whole entry): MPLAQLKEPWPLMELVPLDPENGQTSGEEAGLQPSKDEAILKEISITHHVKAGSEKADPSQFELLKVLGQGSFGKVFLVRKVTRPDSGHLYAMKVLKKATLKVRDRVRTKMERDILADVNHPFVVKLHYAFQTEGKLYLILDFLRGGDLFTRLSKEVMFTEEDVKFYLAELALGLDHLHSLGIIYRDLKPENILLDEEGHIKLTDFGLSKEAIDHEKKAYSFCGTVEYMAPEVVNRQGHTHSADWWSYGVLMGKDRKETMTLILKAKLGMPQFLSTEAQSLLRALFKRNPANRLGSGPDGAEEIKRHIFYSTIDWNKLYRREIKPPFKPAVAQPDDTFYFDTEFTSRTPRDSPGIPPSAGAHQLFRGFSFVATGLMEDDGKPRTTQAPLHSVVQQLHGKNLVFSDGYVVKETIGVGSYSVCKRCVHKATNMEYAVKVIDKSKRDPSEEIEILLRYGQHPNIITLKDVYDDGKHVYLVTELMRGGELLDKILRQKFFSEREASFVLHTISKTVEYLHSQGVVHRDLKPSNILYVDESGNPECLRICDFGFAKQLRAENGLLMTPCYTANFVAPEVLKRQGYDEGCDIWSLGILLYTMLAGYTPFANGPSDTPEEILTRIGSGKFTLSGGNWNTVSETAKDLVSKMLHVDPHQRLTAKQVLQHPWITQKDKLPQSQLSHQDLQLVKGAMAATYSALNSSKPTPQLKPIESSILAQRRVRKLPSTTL
Parameter number of identified peptides, RSK3: see the listing below.
Readout Name: number of identified peptides, RSK3

[
  {
    "Compound": "CCCCCCCCCCCCOS(=O)(=O)[O-].[Na+]",
    "Reported": 6
  },
  {
    "Compound": "CC(C)[C@H](CO)Nc1nc(Nc2ccc(C(=O)O)c(Cl)c2)c2ncn(C(C)C)c2n1 [Purvalanol B, reference compound]",
    "Reported": 11
  },
  {
    "Compound": "CNC1CC2OC(C)(C1OC)n1c3ccccc3c3c4c(c5c6ccccc6n2c5c31)C(=O)NC4 (stereo not shown)",
    "Reported": 21
  },
  {
    "Compound": "Cn1c(=O)c(-c2c(Cl)cccc2Cl)cc2cnc(Nc3ccc(CN)cc3)cc21",
    "Reported": 12
  }
]
